Quick reference for IC50 among some compounds
# assay-system: Mushroom tyrosinase (Agaricus bisporus, UniProt O42713+Q00024+C7FF04+C7FF05)
# assay-text: Inhibition of mushroom tyrosinase using L-DOPA as substrate preincubated for 10 mins followed by substrate addition measured after 20 mins
All answers are understood in µM, so give the number only.

# mol-smiles, reported-property, numeric-result
data = [
    ("COC(=O)/C=C1\\S/C(=N/N=C/c2ccc[nH]2)NC1=O", "IC50", 50.12),
    ("COC(=O)/C=C1\\S/C(=N/N=C/c2ccc(Br)s2)NC1=O", "IC50", 348.93),
    ("COC(=O)/C=C1\\S/C(=N/N=C/c2ccc(OCc3ccc(OC)cc3)cc2)NC1=O", "IC50", 297.6),
    ("COC(=O)/C=C1\\S/C(=N/N=C/C=C/c2ccccc2)NC1=O", "IC50", 208.25),
]

Exercise: Give IC50 for the following compound: COC(=O)/C=C1\S/C(=N/N=C/c2ccncc2)NC1=O
Solution: 3.17

Exercise: Give IC50 for the following compound: COC(=O)/C=C1\S/C(=N/N=C/c2ccc(N(C)C)cc2)NC1=O
Solution: 100.45

Exercise: Give IC50 for the following compound: COC(=O)/C=C1\S/C(=N/N=C/c2ccc(C)o2)NC1=O
Solution: 49.82

Exercise: Give IC50 for the following compound: COC(=O)/C=C1\S/C(=N/N=C/c2ccc(OCc3ccccc3)cc2)NC1=O
Solution: 141.77

Exercise: Give IC50 for the following compound: COC(=O)/C=C1\SC(N/N=C/c2ccco2)=NC1=O
Solution: 75.26
